Parameter: cytotoxicity at 10 µM. Scope: all listed entries.
# protocol text: Toxicity liver stage against HepG2, at 10uM
# Type: cell-based
# Design: test concentration 10 uM, cell line HepG2-A16-CD81EGFP
# assay setup: human, HepG2-A16-CD81EGFP cells; read-out: INHIBITION
Field format: number, assumed %, no unit text.

Some molecules with known cytotoxicity at 10 µM results, for comparison:
molecule	cytotoxicity at 10 µM (%)
CC(=O)N(Cc1noc(C2CC2)n1)C1CCN(Cc2ccccc2)C1 (stereo unspecified)	-5.59
COCC(=O)NCc1cc(=O)n2c(n1)CN(C)CCC2	-103
Cc1ccc(C(=O)N2Cc3ccccc3OC3(CCOCC3)C2)cn1	-25.8
CN(C(=O)CN1CCCC1c1cnn(C)c1)C1(C#N)CCCCC1 (stereo unspecified)	1.41
CC(C1CCN(Cc2c(Cl)cncc2Cl)CC1)N1CCOCC1 (stereo unspecified)	-8.68
COCCCNC(=O)Nc1cccc2ncccc12	-4.84
CCn1cc(CN2CCN(CC(O)c3ccc(C)cc3C)CC2)cn1 (stereo unspecified)	-24.6
Cc1nc(CCN(C)C(=O)CN2C(=O)OC[C@@H]2c2ccccc2)no1	-42.2

Lab book: cytotoxicity at 10 µM of CN(C)C(C(=O)N1CCN(S(N)(=O)=O)CC1)c1ccccc1F (stereo unspecified) noted as 0.199

Lab book: cytotoxicity at 10 µM of CC(=O)NCc1ccc(S(=O)(=O)NC(=O)c2ccc3c(c2)COC3)s1 noted as -1.8

Lab book: cytotoxicity at 10 µM of Cc1n[nH]c(C)c1Sc1ccccc1NC(=O)N1CCOCC1 noted as 4.63
